B1: Hairpin Ribozyme (parent)
chain: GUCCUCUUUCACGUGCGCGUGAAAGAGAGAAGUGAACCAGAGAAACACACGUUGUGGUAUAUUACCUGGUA

variants of: B1; assay: self-cleavage, relative activity (ratio to wild type); higher = more cleavage; co-transcriptional
Rule: self-cleavage of 0.2 or more gives Criterion met; anything lower gives Criterion not met.

VARIANT_SPEC	ASSIGNED_CLASS
A22G U33A	Criterion not met
C4A A26C	Criterion not met
G1U G29U	Criterion not met
U52G G57U	Criterion met
G54C U60G	Criterion met
A22G G25C	Criterion met

Is it the case that G29U C48A has self-cleavage reaching or exceeding 0.2?
Criterion not met

Is self-cleavage for A43G C65A at or above 0.2?
Criterion not met

Decide: self-cleavage of U2G U33G >= 0.2?
Criterion not met

Given the entry G54A C65A , answer whether its self-cleavage meets or surpasses 0.2.
Criterion met

Has A22C G25C a recorded self-cleavage greater than or equal to 0.2?
Criterion not met

# bool: self-cleavage of G17A U70C >= 0.2
Criterion met

For this variant, is measured self-cleavage 0.2 or higher? A11U G34C
Criterion met

Is self-cleavage for A36G C50G at or above 0.2?
Criterion met

Does the variant C37A C66U have recorded self-cleavage that is 0.2 or more?
Criterion not met

Could you tell me if the measured self-cleavage of G1A A49U reaches 0.2 or more?
Criterion not met
